Attribution: patent EP4745135A1

# assay.system: human Cereblon WT GST-tagged protein (Homo sapiens, UniProt Q96SW2)
# Construct: purchased CISBIO 64BDCRBNPEH
# Sequence (Q96SW2 whole entry): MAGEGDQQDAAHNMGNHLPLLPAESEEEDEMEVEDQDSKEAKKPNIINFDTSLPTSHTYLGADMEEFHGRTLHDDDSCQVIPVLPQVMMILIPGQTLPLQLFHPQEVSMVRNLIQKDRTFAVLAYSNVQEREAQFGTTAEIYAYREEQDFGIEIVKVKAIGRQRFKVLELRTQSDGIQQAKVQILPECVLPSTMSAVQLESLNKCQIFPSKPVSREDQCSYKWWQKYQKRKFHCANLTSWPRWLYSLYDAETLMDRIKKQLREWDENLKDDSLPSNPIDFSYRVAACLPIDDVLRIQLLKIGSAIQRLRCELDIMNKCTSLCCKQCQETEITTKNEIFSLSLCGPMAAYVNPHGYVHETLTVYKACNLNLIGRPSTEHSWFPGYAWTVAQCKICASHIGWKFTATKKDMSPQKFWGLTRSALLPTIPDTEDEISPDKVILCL
# experiment: CRBN-binding affinity, HTRF (CEREBLON BINDING kit)
# conditions.used: read-out: Inhibition Rate at 0.5 µM (%)
endpoint: inhibition at 0.5 µM

>>> result("O=C1CCC(N2Cc3c(CN4CCN(c5nc6c(c(N7CCOCC7)n5)SCC6)CC4)cccc3C2=S)C(=O)N1 (centres unmarked)")
"60 to 80%"
>>> result("O=C1CCC(N2Cc3c(CN4CCN(c5cc(Cl)nnc5Cl)CC4)cccc3C2=S)C(=O)N1 (centres unmarked)")
"60 to 80%"
>>> result("O=C1CCC(N2Cc3c(CN4CCN(c5cc(F)ccc5F)CC4)cccc3C2=S)C(=O)N1 (centres unmarked)")
"40 to 53%"
>>> result("O=C1CCC(N2Cc3c(CN4CCC(c5cccs5)CC4)cccc3C2=S)C(=O)N1 (centres unmarked)")
"40 to 53%"
>>> result("Cc1sc2ncnc(N3CCCN(Cc4ccc5c(c4)CN(C4CCC(=O)NC4=O)C5=S)CC3)c2c1C (centres unmarked)")
"80 to 100%"
>>> result("O=C1CCC(N2Cc3cc(CN4CCN(c5ccncc5Br)CC4)ccc3C2=S)C(=O)N1 (centres unmarked)")
"60 to 80%"

Sure, the documented inhibition at 0.5 µM for O=C1CCC(N2Cc3cc(CN4CCN(c5noc6ccncc56)CC4)ccc3C2=S)C(=O)N1 (centres unmarked) is 60 to 80%

// CC1(C)CCC(CN2C3CCC2CN(Cc2cccc4c2CN(C2CCC(=O)NC2=O)C4=S)C3)=C(c2ccc(Cl)cc2)C1 (centres unmarked) : inhibition at 0.5 µM value = 20 to 30%

* * *

# assay.system: human Cereblon WT GST-tagged protein (Homo sapiens)
# Construct: purchased CISBIO 64BDCRBNPEH
# experiment: CRBN-binding affinity, HTRF (CEREBLON BINDING kit)
# conditions.used: read-out: Inhibition Rate at 2 µM (%)
# inhibition at 2 µM per record follows

Below are worked cases with known answers.
>>> result("O=C1CCC(N2Cc3cc(CN4CCN(c5ncnc6sc7c(c56)CCC7)CC4)ccc3C2=S)C(=O)N1 (stereo not shown)")
"80 to 100%"
>>> result("Cc1cccc(N2CCN(Cc3ccc4c(c3)CN(C3CCC(=O)NC3=O)C4=S)CC2)c1 (stereo not shown)")
"80 to 100%"

# compound O=C1CCC(N2Cc3cc(CN4CC=C(c5ncccc5F)CC4)ccc3C2=S)C(=O)N1 (stereo not shown) ; its inhibition at 2 µM = 80 to 100%

# compound O=C1CCC(N2Cc3c(CN4CC=C(c5ccnc(Cl)c5Cl)CC4)cccc3C2=S)C(=O)N1 (stereo not shown) ; its inhibition at 2 µM = 80 to 100%

Entry O=C1CCC(N2Cc3c(CN4CCN(c5ccc(Cl)cc5Cl)CC4)cccc3C2=S)C(=O)N1 (stereo not shown) — recorded inhibition at 2 µM = 60 to 80%

inhibition at 2 µM recorded for this compound, O=C1CCC(N2Cc3cc(CN4CCN(c5ccc(C(F)(F)F)cn5)CC4)ccc3C2=S)C(=O)N1 (stereo not shown) , is 80 to 100%

// field: inhibition at 2 µM; key: O=C1CCC(N2Cc3cc(CN4CCC(c5cccc(F)c5Cl)CC4)ccc3C2=S)C(=O)N1 (stereo not shown) ; value = 60 to 80%

GET /value?item= Cc1sc2ncnc(N3CCN(Cc4cccc5c4CN(C4CCC(=O)NC4=O)C5=S)CC3)c2c1C (stereo not shown) &field=inhibition at 2 µM returns 80 to 100%

For record O=C1CCC(N2Cc3cc(CN4CCN(c5nc(Cl)nc6c5SCC6)CC4)ccc3C2=S)C(=O)N1 (stereo not shown) the listed inhibition at 2 µM is 80 to 100%

Value of inhibition at 2 µM reported for the compound O=C1CCC(N2Cc3c(CN4CCN(C(c5ccccc5)c5ccncc5)CC4)cccc3C2=S)C(=O)N1 (stereo not shown) is 80 to 100%

Measured inhibition at 2 µM, O=C1CCC(N2Cc3c(CN4CCC(c5ncnc6scc(-c7ccccc7)c56)CC4)cccc3C2=S)C(=O)N1 (stereo not shown) : 80 to 100%

Short answer for O=C1CCC(N2Cc3c(CN4CC5CCC(C4)N5C(c4ccccc4)c4ccccc4)cccc3C2=S)C(=O)N1 (stereo not shown) : inhibition at 2 µM was 60 to 80%

Form: compound = O=C1CCC(N2Cc3c(CN4CCN(c5ncccc5C(F)(F)F)CC4)cccc3C2=S)C(=O)N1 (stereo not shown) ; inhibition at 2 µM = 80 to 100%

Record summary for Cc1cc2c(C3CCN(Cc4ccc5c(c4)CN(C4CCC(=O)NC4=O)C5=S)CC3)ncnc2s1 (stereo not shown) : reported inhibition at 2 µM = 80 to 100%

inhibition at 2 µM for O=C1CCC(N2Cc3c(CN4CCN(c5n[nH]c6cc(F)ccc56)CC4)cccc3C2=S)C(=O)N1 (stereo not shown) is 80 to 100%

The compound listed as Cc1nc(C2CCN(Cc3cccc4c3CN(C3CCC(=O)NC3=O)C4=S)CC2)c2c3c(sc2n1)CCCC3 (stereo not shown) has a reported inhibition at 2 µM of 60 to 80%
